# Assay procedure: calcium signal blockers in parental CHO-K1 cells – cell-based, Fluo-8 calcium fluorescence, full deck, 1536-well, counter-screen for M1 antagonist project, primary screen (AID 602250);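 also: 0% = DMSO plus EC80 ATP and 100% = DMSO alone without ATP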
# Conditions used: ATP-induced calcium, Fluo-8 fluorescence, at 3 µM
The whole screen tested about 360,000 compounds, of which about 2,200 (0.61%) were called active.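 The calls were made as follows: active = inhibition above a per-plate cutoff, the plate's mean sample inhibition plus 3 SD (cut at about 24% in these data); inactive = the rest.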 What follows is part of a selection rich in actives, with near analogues and random picks from the rest.
Possible outcomes: true (1) (active), false (0) (inactive)

{"Molecule": "Cc1c(NC(=O)CSCc2ccccc2)cccc1C(=O)O", "Class assignment": "false (0)"}
{"Molecule": "CSc1nccc(NC(=O)c2ccc(C(C)(C)C)cc2)n1", "Class assignment": "true (1)"}
{"Molecule": "O=C(CCS(=O)(=O)Cc1ccccc1)Nc1ccc2c(c1)OCCO2", "Class assignment": "false (0)"}
{"Molecule": "Cc1ccc(C(=O)Nc2ccn(C)n2)cc1", "Class assignment": "false (0)"}
{"Molecule": "O=C(NCC1CCCO1)c1cc2c([nH]c3ccccc32)c(-c2ccc(F)cc2)n1 (stereo unspecified)", "Class assignment": "true (1)"}
{"Molecule": "O=C(Nc1nnc(C2CC2)s1)c1ccccn1", "Class assignment": "false (0)"}

----------
# Assay procedure: calcium signal blockers in parental CHO-K1 cells – cell-based, Fluo-8 calcium fluorescence, full deck, 1536-well, counter-screen for M1 antagonist project, primary screen (AID 602250);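 also: 0% = DMSO plus EC80 ATP and 100% = DMSO alone without ATP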
# Conditions used: ATP-induced calcium, Fluo-8 fluorescence, at 3 µM
Hit rate of the full screen: of about 360,000 compounds, about 2,200 (0.61%) were called active.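 The calls were made as follows: active = inhibition above a per-plate cutoff, the plate's mean sample inhibition plus 3 SD (cut at about 24% in these data); inactive = the rest.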 This excerpt belongs to a sample that is enriched for actives.
Possible outcomes: y (active), n (inactive)

{"Compound": "Cc1ccc(S(=O)(=O)N(Cc2ccc(Cl)cc2)c2ccccc2C(=O)NCc2cccnc2)cc1", "Class assignment": "n"}
{"Compound": "Cc1nn(Cc2ccccc2)c(C)c1C(=O)N1CCN(CC(=O)Nc2ccccc2Cl)CC1", "Class assignment": "y"}
{"Compound": "CN(C)c1ccc(CSc2ccccc2)cc1", "Class assignment": "n"}
{"Compound": "Cc1ccccc1N1CCN(C2CCCN(C(=O)c3cn4c(C)cccc4n3)C2)CC1 (stereo unspecified)", "Class assignment": "n"}
{"Compound": "CC(=O)N1CCc2c(sc(NC(=O)CCS(=O)(=O)c3ccccc3)c2C#N)C1", "Class assignment": "n"}
{"Compound": "CC(NC(=O)CNC(=O)Cc1cccc2ccccc12)c1ccc(S(N)(=O)=O)cc1 (stereo unspecified)", "Class assignment": "n"}
{"Compound": "CN(C(=O)CN1C(=O)NC(C)(CCc2ccccc2)C1=O)c1ccccc1 (stereo unspecified)", "Class assignment": "n"}
{"Compound": "CC1(C(=O)O)CCC(C(=O)Nc2ccc(Cl)c(Cl)c2)C1(C)C (stereo unspecified)", "Class assignment": "n"}
{"Compound": "CCOC(=O)C1CN(S(=O)(=O)c2ccc(F)cc2)C1", "Class assignment": "n"}
{"Compound": "CN(Cc1ccccc1F)C(=O)C(Cc1ccccc1)NC(=O)c1ccccc1 (stereo unspecified)", "Class assignment": "y"}
{"Compound": "Cc1ccc(Cn2nnc3c(=O)[nH]c(C4CCN(S(=O)(=O)/C=C/c5ccccc5)CC4)nc32)cc1", "Class assignment": "n"}
{"Compound": "N#CC1(Nc2ccc(-c3ccc(Cl)cc3)cc2)CCCC1", "Class assignment": "n"}
{"Compound": "O=C(Nc1ccc(Cl)cc1)OCc1cc(-c2ccccc2)on1", "Class assignment": "n"}
{"Compound": "CCOC(=O)COc1cc(OCC(=O)OCC)c2c(=O)cc(-c3ccccc3)oc2c1", "Class assignment": "n"}
{"Compound": "CCOC(=O)C1=CC[C@@H](c2ccccc2)N(S(=O)(=O)c2ccc(C)cc2)[C@H]1c1cccc(OC)c1", "Class assignment": "n"}
{"Compound": "Cc1cc(C)cc(C(=O)N(CCc2ccccc2)C2=CC3CCC(C2)N3C)c1 (stereo unspecified)", "Class assignment": "n"}
{"Compound": "CC(C)(C)OC(=O)C[C@@H]1C/C=C\\C[C@@H](CC(=O)NCCO)C(=O)N[C@H](Cc2c[nH]c3ccccc23)COC1=O", "Class assignment": "n"}
{"Compound": "O=C(Nc1ccc2ccccc2c1)Nc1ccc2snnc2c1", "Class assignment": "y"}
{"Compound": "Cc1ccc(NC(=O)CN(C)CC(=O)Nc2cccc(F)c2)cc1[N+](=O)[O-]", "Class assignment": "y"}
{"Compound": "CCCCCCN1C[C@@H](O)[C@H](n2cc(COC(=O)c3ccccc3)nn2)C[C@@H]1c1ccc(Cl)cc1", "Class assignment": "n"}
{"Compound": "Cc1cc(OC(C)C(=O)Nc2ccc(S(=O)(=O)Nc3onc(C)c3C)cc2)cc(C)c1Cl (stereo unspecified)", "Class assignment": "n"}
